pKd: −log10 of the molar value. Structures can show the parent of a compound that is named as a salt.
Quick record of pKd values for Kelch domain of human KEAP1 (321-624 aa) (Homo sapiens (Human)).

Record excerpt, results attached:
1) Cc1ccc([C@@H](c2ccn3c(C(F)(F)F)nnc3c2C)C(C)(C)C(=O)O)cc1CN1CC2(CCOCC2)Oc2nc(CCC(=O)NC3CCC3)ccc2S1(=O)=O (single isomer, unassigned) [Example 605] | > 9.00
2) CC[C@@H]1CN(Cc2cc(C(CC(=O)O)c3cc(OC(F)F)c4c(c3)nnn4C)ccc2C)S(=O)(=O)c2cccnc2O1 (mixture of isomers) [Example 249, Trifluoroacetic Acid Salt] | > 9.00
3) CCn1nnc2c(C)c([C@H](CC(=O)O)c3ccc(C)c(CN4C[C@@H]5CCCN5c5ncccc5S4(=O)=O)c3)ccc21 (single isomer, unassigned) [Example 157] | ~8.49
4) Cc1cnc([C@@H](c2ccn3c(C(F)F)nnc3c2C)C(C)(C)C(=O)O)cc1CN1CC2(CC2)Oc2nc(OCCN3CCCC3)c(C)cc2S1(=O)=O (single isomer, unassigned) [Example 636] | > 9.00
5) CCc1nnc2c(C)c([C@H](CC(=O)O)c3ccc(C)c(CN4C[C@H]5CCCN5c5ncccc5S4(=O)=O)c3)ccn12 (single isomer, unassigned) [Example 283] | > 9.00
6) Cc1cnc2c(c1)S(=O)(=O)N(Cc1cc([C@@H](c3ccn4c(C(F)(F)F)nnc4c3C)C(C)(C)C(=O)O)ccc1C)CC1(CCNCC1)O2 (single isomer, unassigned) [Example 340] | 8.91
7) Cc1cnc([C@H](c2ccn3c(C(F)(F)F)nnc3c2C)C(C)(C)C(=O)O)cc1CN1CC2(CCOCC2)Oc2ncccc2S1(=O)=O (single isomer, unassigned) [Example 57] | 5.25
8) Cc1ccc([C@@H](CC(=O)O)c2ccn3c(C(F)F)nnc3c2C)cc1CN1C[C@@H]2CCCCN2c2ncc(C#N)cc2S1(=O)=O (single isomer, unassigned) [Example 29] | > 9.00

Dear colleague, could you send me pKd for each of the items below? Thanks.
1. Cc1ccc([C@H](CC(=O)O)c2ccn3c(C(F)(F)F)nnc3c2C)cc1CN1C[C@H]2CCCCN2c2nc(C(N)=O)ccc2S1(=O)=O (single isomer, unassigned) [Example 205]
2. Cc1ccc(C(c2ccc3c(nnn3CC3CC3)c2C)C(C)(C)C(=O)O)nc1CN1CC2(CCOCC2)Oc2nc(OCCN3CCOCC3)ccc2S1(=O)=O (stereo not shown) [Example 327]

["> 9.00", "> 9.00"]

----------
Quick record of log10(Kd) values for Kelch domain of human KEAP1 (321-624 aa) (Homo sapiens (Human), UniProt Q14145).
Could you please treat all values as log10 of Kd in nM?

Record excerpt, results attached:
1) Cc1ncc([C@@H](c2ccn3c(C(F)(F)F)nnc3c2C)C(C)(C)C(=O)O)cc1CN1CC2(CCOCC2)Oc2ncccc2S1(=O)=O (single isomer, unassigned) | 3.77
2) Cc1ccc([C@H](CC(=O)O)c2ccc3c(nnn3C3CC3)c2C)cc1CN1C[C@@]2(C)CCCN2c2ncccc2S1(=O)=O (single isomer, unassigned) | 1.15
3) Cc1ccc([C@@H](CC(=O)O)c2ccc3c(nnn3CC3CC3)c2C(F)F)cc1CN1C[C@H]2CCCCN2c2ncccc2S1(=O)=O (single isomer, unassigned) | 0.60
4) CCn1nnc2c(C)c([C@H](c3ccc(C)c(CN4CC5(CCOCC5)Oc5ncc(C)cc5S4(=O)=O)c3)C(C)(C)C(=O)O)ccc21 (single isomer, unassigned) | 2.43
5) Cc1ccc([C@H](c2ccn3c(C(F)F)nnc3c2C)C(C)(C)C(=O)O)nc1CN1CC2(CCOCC2)Oc2nc(OCCN3CCCC3)c(C)cc2S1(=O)=O (single isomer, unassigned) | 3.38

Dear colleague, could you send me log10(Kd) for each of the items below? Thanks.
1. Cc1c(C(CC(=O)O)c2ccc(Cl)c(CN3CC4(COC4)Oc4ncccc4S3(=O)=O)c2)ccn2c(C(F)(F)F)nnc12 (stereo not drawn)
2. Cc1ccc([C@H](CC(N)=O)c2ccn3c(C(F)(F)F)nnc3c2C)cc1CN1C[C@@H]2CCCCN2c2ncccc2S1(=O)=O (single isomer, unassigned)

[0.38, 2.41]

Dear colleague, could you send me log10(Kd) for each of the items below? Thanks.
1. CCn1nnc2c(C)c([C@@H](CC(=O)O)c3ccc(C)c(CN4C[C@H]5CCCN5c5ncccc5S4(=O)=O)c3)ccc21 (single isomer, unassigned)
2. Cc1ccc([C@@H](CC(=O)O)c2ccn3c(C)nnc3c2)cc1CN1C[C@H]2CCCN2c2ncccc2S1(=O)=O (single isomer, unassigned)
3. Cc1ccc([C@@H](c2ccn3c(C(F)(F)F)nnc3c2C)C(C)(C)C(=O)O)cc1CN1C[C@]2(CCOC2)Oc2ncccc2S1(=O)=O (single isomer, unassigned)
4. Cc1ccc([C@H](CC(=O)O)c2ccn3c(C(F)(F)F)nnc3c2C)cc1CN1CC2(CC2)Oc2nc(O)ccc2S1(=O)=O (single isomer, unassigned)
5. Cc1ccc([C@@H](CC(=O)O)c2ccc3c(nnn3C3CC3)c2C)cc1CN1C[C@@H]2COCCN2c2ncccc2S1(=O)=O (single isomer, unassigned)

1. -0.56
2. 0.36
3. 3.45
4. 0.20
5. 0.33

All figures here come from patent US10947252B2.
